test: Metabolic stability in monkey liver microsomes assessed as half life in presence of NADPH; type: ADME, Macaca mulatta, Microsome; conditions: rhesus monkey
measurementName: half-life

query: Which value of half-life has been reported for COC(=O)N[C@H](C(=O)N[C@@H](Cc1ccccc1)[C@H](CN(Cc1ccc(-c2ccccn2)cc1)NC(=O)[C@@H](NC(=O)OC)C(C)(C)C)OC(=O)OC(OC(=O)[C@@H](N)C(C)C)C(C)C)C(C)(C)C (stereo in doubt; 3s) in the records?
result: 9 min

---

experiment: AUClast in Sprague-Dawley rat at 30 ml/kg,po measured upto 24 hrs by UPLC-MS/MS analysis; assay type: ADME; set-up: time < 24 hrs, dose 30 ml/kg, route po; settings: in vivo
measurementName: AUC(0-t) at 24 h

query: So what does the record say about AUC(0-t) at 24 h for COC(=O)N[C@H](C(=O)N[C@@H](Cc1ccccc1)[C@H](CN(Cc1ccc(-c2ccccn2)cc1)NC(=O)[C@@H](NC(=O)OC)C(C)(C)C)OC(=O)OC(OC(=O)[C@H](C(C)C)N(C)C)C(C)C)C(C)(C)C (stereo in doubt; 5h) ?
result: 64.6 µM·h

query: I would be grateful if you could share the reported AUC(0-t) at 24 h for COC(=O)N[C@H](C(=O)N[C@@H](Cc1ccccc1)[C@H](CN(Cc1ccc(-c2ccccn2)cc1)NC(=O)[C@@H](NC(=O)OC)C(C)(C)C)OC(=O)OC(OC(=O)[C@@H](N)C(C)C)C(C)C)C(C)(C)C (stereo in doubt; 3s) .
result: 0.601 µM·h

query: # AUC(0-t) at 24 h lookup, item COC(=O)N[C@H](C(=O)N[C@@H](Cc1ccccc1)[C@H](CN(Cc1ccc(-c2ccccn2)cc1)NC(=O)[C@@H](NC(=O)OC)C(C)(C)C)OC(=O)OC(OC(=O)[C@@H](NC(=O)[C@H](N)C(C)C)C(C)C)C(C)C)C(C)(C)C (stereo in doubt; 6h)
result: 68.3 µM·h

---

assay: Fold ratio of total AUC of Atazanavir in Sprague-Dawley rat at 3 ml/kg,po measured upto 24 hrs by UPLC-MS/MS analysis; type: ADME; conditions: in vivo
measurementName: Ratio

Look over these answered cases.
[[record]]
compound = "COC(=O)N[C@H](C(=O)N[C@@H](Cc1ccccc1)[C@H](CN(Cc1ccc(-c2ccccn2)cc1)NC(=O)[C@@H](NC(=O)OC)C(C)(C)C)OC(=O)OC(OC(=O)[C@@H](N)CC(C)C)C(C)C)C(C)(C)C (stereo in doubt; 3t)"
readoutvalue = 1.3

[[record]]
compound = "COC(=O)N[C@H](C(=O)N[C@@H](Cc1ccccc1)[C@H](CN(Cc1ccc(-c2ccccn2)cc1)NC(=O)[C@@H](NC(=O)OC)C(C)(C)C)OC(=O)OC(OC(=O)[C@@H](N)C(C)C)C1CCCCC1)C(C)(C)C (stereo in doubt; 4o)"
readoutvalue = 2.1

[[record]]
compound = "COC(=O)N[C@H](C(=O)N[C@@H](Cc1ccccc1)[C@H](CN(Cc1ccc(-c2ccccn2)cc1)NC(=O)[C@@H](NC(=O)OC)C(C)(C)C)OC(=O)OC(OC(=O)[C@@H](NC(=O)[C@@H](N)C(C)C)C(C)C)C(C)C)C(C)(C)C (stereo in doubt; 6f)"
readoutvalue = 4.2

[[record]]
compound = "CCC(C)C(OC(=O)O[C@@H](CN(Cc1ccc(-c2ccccn2)cc1)NC(=O)[C@@H](NC(=O)OC)C(C)(C)C)[C@H](Cc1ccccc1)NC(=O)[C@@H](NC(=O)OC)C(C)(C)C)OC(=O)[C@@H](N)C(C)C (mixture of isomers)"
readoutvalue = 4.6

[[record]]
compound = "COC(=O)N[C@H](C(=O)N[C@@H](Cc1ccccc1)[C@H](CN(Cc1ccc(-c2ccccn2)cc1)NC(=O)[C@@H](NC(=O)OC)C(C)(C)C)OC(=O)OC(OC(=O)[C@H](N)C(C)C)C(C)C)C(C)(C)C (stereo in doubt; 5i)"
readoutvalue = 5.6


Here's the next entry for you.
query: GET /values?readout=Ratio&item= COC(=O)N[C@H](C(=O)N[C@@H](Cc1ccccc1)[C@H](CN(Cc1ccc(-c2ccccn2)cc1)NC(=O)[C@@H](NC(=O)OC)C(C)(C)C)OC(=O)OC(OC(=O)CCN)C(C)C)C(C)(C)C (stereo in doubt; 3z)
result: 8.7
